protocol.text: in vivo
test.conditions: mouse, ip
LD50: recorded values
State the answer as a number, implicitly in mg/kg.

Answered cases to consult:
{"compound": "CCCOCCOC(=O)C1=C(C)NC(C)=C(C(=O)OCCOCCC)C1c1ccccc1OC(F)F [R = C2 H4 OC3 H7]", "experimental.value": 450}
{"compound": "COCCOC(=O)C1=C(C)NC(C)=C(C(=O)OCCOC)C1c1ccccc1OC(F)F [R = C2 H4 OCH3]", "experimental.value": 1130}
{"compound": "CCOCCOC(=O)C1=C(C)NC(C)=C(C(=O)OCCOCC)C1c1ccccc1OC(F)F [R = C2 H4 OC2 H5]", "experimental.value": 2200}
{"compound": "COCC(C)OC(=O)C1=C(C)NC(C)=C(C(=O)OC(C)COC)C1c1ccccc1OC(F)F (stereo not drawn) [R = CH(CH3)CH2 OCH3]", "experimental.value": 2500}
{"compound": "CC1=C(C(=O)OCCOc2ccccc2)C(c2ccccc2OC(F)F)C(C(=O)OCCOc2ccccc2)=C(C)N1 [R = C2 H4 OC6 H5]", "experimental.value": 790}

Reported LD50 of COC(=O)C1=C(C)NC(C)=C(C(=O)OCCN(C)Cc2ccccc2)C1c1cccc([N+](=O)[O-])c1.Cl (stereo not drawn) [Nicardipin, reference compound] : 225

Attribution: patent US4845109A
